- assay: Antagonist activity at human GABAc rho 1 receptor expressed in HEK293 cells by FMP assay
- Assay type: functional, cell-based
readout-label: Ki
The number alone won't do; follow it with the unit.

Req: Tell me the measured Ki of Oc1noc2c1CCNC2 , please.
Resp: 100 µM

====

- assay: Displacement of [3H]muscimol from GABAA receptor in rat brain membrane
- Type: cell membranes
pKi: −log10 of the molar value.
pKi values by entry

Before answering, review these 5 worked examples.
{"molecule": "O=C(O)Cc1[nH]cnc1-c1ccccc1", "pKi": "< 4.00"}
{"molecule": "Cc1ccc(-c2nc[nH]c2CC(=O)O)cc1", "pKi": "< 4.00"}
{"molecule": "Cc1cccc(-c2nc[nH]c2CC(=O)O)c1", "pKi": "< 4.00"}
{"molecule": "O=C(O)Cc1[nH]cnc1I", "pKi": "< 4.00"}
{"molecule": "O=C(O)Cc1c[nH]c(Cl)n1", "pKi": "< 4.00"}

Req: Which measured pKi value corresponds to O=C(O)Cc1c[nH]c(-c2ccccc2)n1 ?
Resp: < 4.00

Req: # query: pKi of entry CC1N=C(CC(=O)O)C(c2ccccc2)=N1 (stereo not drawn)
Resp: < 4.00

Req: Requested field: pKi. Item: O=C(O)Cc1[nH]c(Cl)nc1-c1ccccc1
Resp: < 4.00

Req: # pKi lookup, item Cc1nc(CC(=O)O)c[nH]1
Resp: < 4.00

Req: Entry Cc1ccccc1-c1nc[nH]c1CC(=O)O : reported pKi = ?
Resp: < 4.00

Req: Any idea what its pKi is? The molecule is O=C(O)Cc1[nH]cnc1-c1ccc(F)cc1
Resp: < 4.00

Req: Bench note: what pKi did Cc1[nH]cnc1CC(=O)O show?
Resp: 4.17

Req: Please report the recorded pKi for O=C(O)Cc1c[nH]cn1 .
Resp: 6.19
